// provenance: patent US11267811B2

target: His-tagged recombinant human Gal-3 (hGal-3) (Homo sapiens (Human), UniProt P17931); assay: Gal-3 HTRF assay (His-tagged hGal-3 binding to B-ASF); settings: read-out: hGal3 IC50;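 further: compounds preincubated 30 min with hGal-3, then 1 h with B-ASF, detection via terbium anti-His antibody and streptavidin d2. Control with B-ASF counts as full signal, omitting B-ASF as background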
Sequence (P17931 whole entry): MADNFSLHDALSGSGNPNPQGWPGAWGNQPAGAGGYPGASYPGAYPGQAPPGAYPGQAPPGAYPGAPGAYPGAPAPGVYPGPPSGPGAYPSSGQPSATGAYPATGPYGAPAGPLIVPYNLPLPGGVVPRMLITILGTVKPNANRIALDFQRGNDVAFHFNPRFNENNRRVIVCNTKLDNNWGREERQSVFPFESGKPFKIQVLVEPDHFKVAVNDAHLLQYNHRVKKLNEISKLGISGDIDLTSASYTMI
property-label: pIC50
For clarity, pIC50 is expressed as the negative log10 of concentration in mol/L.

Suppose we examine the compound `Cc1nc2ccc(-n3ncnc3[C@@H]3O[C@H](CO)[C@H](O)[C@H](n4cc(-c5ccc(OC(F)(F)F)c(F)c5)nn4)[C@H]3O)cc2s1` ; what pIC50 value has been reported?
6.01

# input compound: `Cc1nc([C@@H]2O[C@H](CO)[C@H](O)[C@H](n3cc(-c4ccc(Cl)c(F)c4)nn3)[C@H]2O)n(-c2cc(F)ccc2C(F)(F)F)n1` ; wanted: its pIC50
6.96

// pIC50 lookup, key: `Cc1nc([C@@H]2O[C@H](CO)[C@H](O)[C@H](n3cc(-c4ccc(Cl)c(F)c4)nn3)[C@H]2O)n(-c2cc(C(F)(F)F)ccc2Cl)n1`
7.15

# query: pIC50 of entry `COC(=O)Nc1ccc(-c2cn([C@H]3[C@@H](O)[C@@H](CO)O[C@@H](c4ncnn4-c4ccc5nc(C)sc5c4)[C@@H]3O)nn2)cc1F`
5.95

For `Cc1nc2ccc(-n3c(C)nnc3[C@@H]3O[C@H](CO)[C@H](O)[C@H](n4cc(-c5cc(F)c(Cl)c(F)c5)nn4)[C@H]3O)cc2s1` , what is its reported pIC50?
7.46

Return reported pIC50; argument: `Cc1nc2ccc(-n3ncnc3[C@@H]3O[C@H](CO)[C@H](O)[C@H](n4cc(-c5ccc(N(C)C)c(F)c5)nn4)[C@H]3O)cc2s1`
5.81

Given `Cc1nc2ccc(-n3c(C)nnc3[C@@H]3O[C@H](CO)[C@H](O)[C@H](n4cc(-c5ccc(Cl)c(F)c5)nn4)[C@H]3O)cc2s1` , state its recorded pIC50.
7.51

# lookup: pIC50 of `CCOC(=O)c1nnc([C@@H]2O[C@H](CO)[C@H](O)[C@H](n3cc(-c4cc(F)c(F)c(F)c4)nn3)[C@H]2O)n1-c1ccc2nc(C)sc2c1`
7.22

Given `Cc1nc2ccc(-n3ncnc3[C@@H]3O[C@H](CO)[C@H](O)[C@H](n4cc(-c5ccccc5)nn4)[C@H]3O)cc2s1` , state its recorded pIC50.
6.22

Query (compound): `Cn1nccc1[C@@H]1O[C@H](CO)[C@H](O)[C@H](n2cc(-c3cc(F)c(F)c(F)c3)nn2)[C@H]1O` ; field requested: pIC50
5.00

// query pIC50 value for entry `COc1cc(-c2cn([C@H]3[C@@H](O)[C@@H](CO)O[C@@H](c4ncnn4-c4ccc5nc(C)sc5c4)[C@@H]3O)nn2)cc(F)c1F`
7.40

Value lookup for pIC50; key = `CNc1ccc(-c2cn([C@H]3[C@@H](O)[C@@H](CO)O[C@@H](c4ncnn4-c4ccc5nc(C)sc5c4)[C@@H]3O)nn2)cc1F`
6.13

I would be grateful if you could share the reported pIC50 for `Cc1nnc([C@@H]2O[C@H](CO)[C@H](O)[C@H](n3cc(-c4cc(F)c(Cl)c(F)c4)nn3)[C@H]2O)n1-c1cc(Cl)ccc1C(F)(F)F` .
7.92

Fill blank: measured pIC50 of the compound `Cc1nc2ccc(-n3ncnc3[C@@H]3O[C@H](CO)[C@H](O)[C@H](n4cc(-c5cc(F)cc(F)c5)nn4)[C@H]3O)cc2s1` is ____.
6.85

I would be grateful if you could share the reported pIC50 for `Cc1nc2ccc(-n3ncnc3[C@@H]3O[C@H](CO)[C@H](O)[C@H](n4cc(-c5ccc(C(F)(F)F)c(F)c5)nn4)[C@H]3O)cc2s1` .
7.10

What value of pIC50 has been recorded for this entry: `Cc1nc2ccc(-n3cnnc3[C@@H]3O[C@H](CO)[C@H](O)[C@H](n4cc(-c5ccc(Cl)c(F)c5)nn4)[C@H]3O)cc2s1`
7.64
